- TARGET_UNDER_TEST: T1, 4H575-bN
- T1 chain: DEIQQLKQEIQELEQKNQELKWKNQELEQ
- ASSAY_PROCEDURE: two-hybrid library CCNG1;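 further: natural log of median RNA to DNA barcode read ratio; higher means stronger binding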
Could you mark each record TRUE if its interaction score falls strictly under -1, and FALSE if it equals or exceeds it?

Completed entries (count: 6):
• DEIQQLEQENQELEQKIQELKWEIQELKQ [4H170-bN] = FALSE
• DKIQQLKQEIQELKQKNQELEWEIQELEQ [4H2673-bN] = TRUE
• DEIQQLKQEIQELEQKNQELKWKNQELEQ [4H575-bN] = FALSE
• DKNQQLKQKNQELKQKIQELKWEIQELEQ [4H4073-bN] = TRUE
• DKIQQLKQKNQELKQEIQELEWEIQELKQ [4H3010-bN] = TRUE
• DKNQQLEQEIQELEQKIQELEWKNQELKQ [4H3112-bN] = TRUE

// next entry
Qu. In the record for DENQQLEQENQELEQEIQELEWKIQELKQ [4H1158-bN] , is interaction score less than -1?
Ans. FALSE

Values were extracted from paper PMC10397247.
